TARGET_DESC: T1, Human CD137 ECD (human)
T1 construct: also called 4-1BB
METHOD_SUMMARY: single mutant vs template dBBDu183H
OBSERVABLE: fold change of affinity (fold)

H183/L072 VH S30M (antibody, name in Kabat numbering, V domains shown) VH: QVQLVESGGGLVQPGRSLRLSCAASGFTFMNAWMHWVRQAPGKGLEWVAQIKDKGNAYAAYYAPSVKGRFTISRDDSKNSIYLQMNSLKTEDTAVYYCHYVHYASASTVLPAFGVDAWGQGTTVTVSS VL: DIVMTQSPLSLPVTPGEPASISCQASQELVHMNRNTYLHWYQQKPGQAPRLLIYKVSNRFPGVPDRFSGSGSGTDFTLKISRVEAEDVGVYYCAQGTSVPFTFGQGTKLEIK : 0.8
H183/L072 VH A57G (antibody, name in Kabat numbering, V domains shown) VH: QVQLVESGGGLVQPGRSLRLSCAASGFTFSNAWMHWVRQAPGKGLEWVAQIKDKGNAYAGYYAPSVKGRFTISRDDSKNSIYLQMNSLKTEDTAVYYCHYVHYASASTVLPAFGVDAWGQGTTVTVSS VL: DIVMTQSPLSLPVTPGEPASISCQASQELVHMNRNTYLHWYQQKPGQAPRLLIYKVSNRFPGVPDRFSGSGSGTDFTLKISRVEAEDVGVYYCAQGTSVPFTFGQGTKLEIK : 0.9
H183/L072 VH F27E (antibody, name in Kabat numbering, V domains shown) VH: QVQLVESGGGLVQPGRSLRLSCAASGETFSNAWMHWVRQAPGKGLEWVAQIKDKGNAYAAYYAPSVKGRFTISRDDSKNSIYLQMNSLKTEDTAVYYCHYVHYASASTVLPAFGVDAWGQGTTVTVSS VL: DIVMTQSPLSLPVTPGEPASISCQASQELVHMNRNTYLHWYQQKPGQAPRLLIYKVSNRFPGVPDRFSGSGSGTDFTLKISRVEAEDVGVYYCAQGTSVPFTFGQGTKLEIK : 0.2
H183/L072 VH Y55K (antibody, name in Kabat numbering, V domains shown) VH: QVQLVESGGGLVQPGRSLRLSCAASGFTFSNAWMHWVRQAPGKGLEWVAQIKDKGNAKAAYYAPSVKGRFTISRDDSKNSIYLQMNSLKTEDTAVYYCHYVHYASASTVLPAFGVDAWGQGTTVTVSS VL: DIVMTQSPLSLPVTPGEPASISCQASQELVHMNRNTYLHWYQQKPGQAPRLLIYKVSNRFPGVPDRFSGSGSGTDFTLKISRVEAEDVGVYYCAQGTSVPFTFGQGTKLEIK : 0.2
H183/L072 VH S30G (antibody, name in Kabat numbering, V domains shown) VH: QVQLVESGGGLVQPGRSLRLSCAASGFTFGNAWMHWVRQAPGKGLEWVAQIKDKGNAYAAYYAPSVKGRFTISRDDSKNSIYLQMNSLKTEDTAVYYCHYVHYASASTVLPAFGVDAWGQGTTVTVSS VL: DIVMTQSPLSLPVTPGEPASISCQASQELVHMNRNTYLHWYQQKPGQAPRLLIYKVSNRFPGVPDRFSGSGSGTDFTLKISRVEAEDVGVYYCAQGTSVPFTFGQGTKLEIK : 0.9
